Listed here are molecules together with their documented Tmax.
Test: Pharmacokinetic experiment in rats after single intragastric administration (plasma LC-MS/MS)
Assay type: in vivo
Conditions: both sexes, SD, rat, po, 2 mg/kg intragastric, mean, n = 6
Report the figure along with its unit, number first.

>  <molecule>
[2H]C([2H])(NC)c1cc(-c2ccccc2F)n(S(=O)(=O)c2cccnc2)c1 [TAK-438d2]

>  <Tmax>
15 min

$$$$

IN: # get_value(readout='Tmax', item= CNCc1cc(-c2ccccc2F)n(S(=O)(=O)c2cccnc2)c1 [TAK-438, reference compound] )
OUT: 15 min

---

Test: Pharmacokinetic experiment in rats after single intragastric administration (plasma LC-MS/MS)
Type: in vivo
Settings: both sexes, SD, rat, po, 2 mg/kg intragastric, mean, n = 6
observation-type: AUC(0-inf)

>  <molecule>
CNCc1cc(-c2ccccc2F)n(S(=O)(=O)c2cccnc2)c1 [TAK-438, reference compound]

>  <AUC(0-inf)>
45 ng·h/mL

$$$$

// moving on: another record for AUC(0-inf)
IN: // AUC(0-inf) lookup, key: [2H]C([2H])(NC)c1cc(-c2ccccc2F)n(S(=O)(=O)c2cccnc2)c1 [TAK-438d2]
OUT: 56.4 ng·h/mL

---

Test: Pharmacokinetic experiment in rats after single intragastric administration (plasma LC-MS/MS)
Format: in vivo
Settings: both sexes, SD, rat, po, 2 mg/kg intragastric, mean, n = 6
observation-type: half-life (min)
# output: bare number, implied unit min

>  <compound>
[2H]C([2H])(NC)c1cc(-c2ccccc2F)n(S(=O)(=O)c2cccnc2)c1

>  <observation-type>
half-life

>  <recorded-measurement>
57.7

$$$$

Now for the compound whose half-life we want.
IN: Which half-life reading was recorded for the compound CNCc1cc(-c2ccccc2F)n(S(=O)(=O)c2cccnc2)c1 [TAK-438, reference compound] ?
OUT: 47.8

---

Catalogue of compounds with associated AUC(0-t)
Experiment: Pharmacokinetic experiment in rats after single intragastric administration (plasma LC-MS/MS)
Format: in vivo
Conditions: both sexes, SD, rat, po, 2 mg/kg, 2 mg/kg intragastric, mean, n = 6, read-out: AUC0-6 h
Form field: result (number plus unit)

>  <compound>
[2H]C([2H])(NC)c1cc(-c2ccccc2F)n(S(=O)(=O)c2cccnc2)c1 [TAK-438d2]

>  <AUC(0-t)>
56.2 ng·h/mL

$$$$

Next:
IN: What measured AUC(0-t) goes with CNCc1cc(-c2ccccc2F)n(S(=O)(=O)c2cccnc2)c1 [TAK-438, reference compound] ?
OUT: 44.6 ng·h/mL

---

Tested on: basal gastric acid secretion in rats
Assay: Inhibitory test of basal gastric acid secretion in pylorus-ligated rats after intragastric administration
Type: in vivo, SD rats
Conditions: 2 mg/kg intragastric, n = 10
Description: An equal amount of deuterated vonoprazan fumarate derivatives I-1a, I-2a, I-3a and I-4a prepared and obtained in the Examples and vonoprazan fumarate (vonoprazan was 1-[5-(2-fluorophenyl)-1-(pyridin-3-yl-sulfonyl)-1H-pyrrol-3-yl]-N-methylmethanamine) were taken respectively and subjected to the inhibitory activity test on gastric acid secretion in rats. SD rats which were SPF grade and weighed 180 to 200 g were selected and used in this experiment. […]
Counter-ions that a name gives are not always drawn.
Recorded Inhibitory rate (basal gastric acid secretion), one value per entry.
Just the number in %, nothing appended.

>  <compound>
O=C(O)/C=C/C(=O)O.[2H]C([2H])([2H])NC([2H])([2H])c1cc(-c2ccccc2F)n(S(=O)(=O)c2cccnc2)c1

>  <recorded-measurement>
95.5

$$$$
>  <compound>
O=C(O)/C=C/C(=O)O.[2H]C([2H])(NC)c1cc(-c2ccccc2F)n(S(=O)(=O)c2cccnc2)c1

>  <recorded-measurement>
95.3

$$$$
>  <compound>
CNCc1cc(-c2ccccc2F)n(S(=O)(=O)c2cccnc2)c1 [vonoprazan fumarate, reference compound]

>  <recorded-measurement>
73.8

$$$$

IN: Value wanted: Inhibitory rate (basal gastric acid secretion) (basal gastric acid secretion in rats) of entry `O=C(O)/C=C/C(=O)O.[2H]c1nc([2H])c(S(=O)(=O)n2cc(C([2H])([2H])NC([2H])([2H])[2H])cc2-c2ccccc2F)c([2H])c1[2H]`
OUT: 97.4

Data provenance: patent US10912769B2
